Entries annotated with measured pKi
EXPERIMENTAL TARGET: hCCR2b (Homo sapiens)
EXPERIMENTAL DETAILS: CCR2 binding assay ([125I]MCP-1, SPA, CHO cell membranes)
Parameters: expressed in transfected cells; host or cells: CHO cells (membrane preparation)
MEASUREMENT PARAMETERS: membranes from CHO cells expressing hCCR2b, 50 pM [125I]MCP-1; read-out: Binding hCCR2 (Ki)
pKi: −log10 of the molar value.

Observe how each entry below is paired with its result.
CCN1CCC2(CC1C)OC(=O)C(C)=C2C(=O)N1CCc2ccc(C(F)(F)F)cc2C1 (stereo not shown) [Compound 79]
> 7.30
CC1=C(C(=O)N2CCc3ccc(C(F)(F)F)cc3C2)C2(CCN(C3CCOCC3)CC2)OC1=O [Compound 26]
> 7.30
CC1=C(C(=O)N2CCN(c3cccc(C(F)(F)F)c3)CC2)C2(CCN(CCc3ccncc3)CC2)OC1=O [Compound 12]
7.00 to 7.30

Please turn your attention to the following entry.
*Q* Entry CC1=C(C(=O)N2CCN(c3cccc(C(F)(F)F)c3)CC2)C2(CCN(CC3CCOC3)CC2)OC1=O (stereo not shown) [Compound 22] has what pKi?
*A* > 7.30

----------
EXPERIMENTAL TARGET: hCCR2b (Homo sapiens)
EXPERIMENTAL DETAILS: CCR2 binding assay ([125I]MCP-1, SPA, CHO cell membranes)
Parameters: expressed in transfected cells; host or cells: CHO cells (membrane preparation)
MEASUREMENT PARAMETERS: membranes from CHO cells expressing hCCR2b, 50 pM [125I]MCP-1; read-out: Binding hCCR2 (Ki)
Entries annotated with measured Ki

Observe how each entry below is paired with its result.
CCN1CCC2(CC1)OC(=O)C(C)=C2C(=O)NCc1cccc(C(F)(F)F)c1
50 to 100 nM
CC1=C(C(=O)N2CCN(c3cccc(C#N)c3)CC2)C2(CCN(Cc3ccccc3)CC2)OC1=O
500 to 2000 nM

*Q* Entry CCN1CCC2(CC1)OC(=O)C(C)=C2C(=O)N1CCN(c2cc(C(F)(F)F)ccc2OC)CC1 has what Ki?
*A* 500 to 2000 nM

*Q* Param item: CC1=C(C(=O)N2CCc3ccc(C(F)(F)F)cc3C2)C2(CCN(C3CCOC(C)(C)C3)CC2)OC1=O (stereo not shown)
*A* < 50 nM

----------
Entries annotated with measured pKi
EXPERIMENTAL TARGET: hCCR2b (Homo sapiens)
Sequence (P41597 1-360 isoform P41597-2): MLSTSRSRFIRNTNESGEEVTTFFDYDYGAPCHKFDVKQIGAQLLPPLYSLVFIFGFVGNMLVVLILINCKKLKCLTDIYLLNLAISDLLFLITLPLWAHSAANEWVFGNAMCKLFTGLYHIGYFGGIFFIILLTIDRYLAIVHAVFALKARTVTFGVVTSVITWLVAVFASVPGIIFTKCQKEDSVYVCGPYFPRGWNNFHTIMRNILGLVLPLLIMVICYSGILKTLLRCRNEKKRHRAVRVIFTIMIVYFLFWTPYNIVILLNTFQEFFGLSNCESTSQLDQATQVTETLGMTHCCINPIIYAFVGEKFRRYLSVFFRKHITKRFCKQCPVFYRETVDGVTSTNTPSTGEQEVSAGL
EXPERIMENTAL DETAILS: CCR2 binding assay ([125I]MCP-1, SPA, CHO cell membranes)
Parameters: expressed in transfected cells; host or cells: CHO cells (membrane preparation)
MEASUREMENT PARAMETERS: membranes from CHO cells expressing hCCR2b, 50 pM [125I]MCP-1; read-out: Binding hCCR2 (Ki)
pKi: −log10 of the molar value.

Observe how each entry below is paired with its result.
CCN1CCC2(CC1)OC(=O)C(C)=C2C(=O)N1C[C@@H]2C[C@H]1CN2c1cc(C(F)(F)F)ccn1
> 7.30
CCN1CCC2(CC1)OC(=O)C(C)=C2C(=O)N1CCN(c2cc(OC)cc(C(F)(F)F)c2)CC1
> 7.30
CCN1CCC2(CC1)OC(=O)C(C)=C2C(=O)N1CCCN(c2ccc(C(F)(F)F)cc2)CC1
6.30 to 7.00
CCN1CCC2(CC1)OC(=O)C(C)=C2C(=O)N1CCc2cc(C(F)(F)F)ccc2C1
> 7.30
CC1=C(C(=O)N2CCN(c3cccc(C(F)(F)F)c3)CC2)C2(CCN(C(C)C)C2)OC1=O (stereo not drawn)
> 7.30
CCN1CCC2(CC1)OC(=O)C(C)=C2C(=O)N1CCN(c2cc(C(F)(F)F)ccn2)CC1
> 7.30
CCN1CCC2(CC1)OC(=O)C(C)=C2C(=O)N1CCc2ccc(Cl)cc2C1
> 7.30
CC1=C(C(=O)N2CCN(c3cccc(C(F)(F)F)c3)CC2)C2(CCN(CCc3ccccc3Cl)CC2)OC1=O
6.30 to 7.00
CC1=C(C(=O)N2CCc3ccc(C(F)(F)F)cc3C2)C2(CCN(C3CCS(=O)(=O)CC3)CC2)OC1=O
7.00 to 7.30
CC1=C(C(=O)N2CCc3ccc(C(F)(F)F)cc3C2)C2(CCN(CCN3CCOCC3)CC2)OC1=O
> 7.30

*Q* Entry CCN1CCC2(CC1)OC(=O)C(C)=C2C(=O)N1CCCN(c2cccc(C(F)(F)F)c2)CC1 has what pKi?
*A* 7.00 to 7.30

*Q* Param item: CC1=C(C(=O)N2CCc3ncc(C(F)(F)F)cc3C2)C2(CCN(C3CCOC(C)C3)CC2)OC1=O (stereo not drawn)
*A* > 7.30

*Q* Param item: CC1=C(C(=O)N2COc3ccc(C(F)(F)F)cc3C2)C2(CCN(C(C)C)CC2)OC1=O
*A* > 7.30

*Q* Param item: CC1=C(C(=O)N2CCc3ncc(C(F)(F)F)cc3C2)C2(CCN(C(C)C)CC2)OC1=O
*A* > 7.30

*Q* Param item: CC1=C(C(=O)N2CCN(c3cccc(C(F)(F)F)c3)CC2)C2(CCN(C3CCCCC3)CC2)OC1=O
*A* > 7.30

----------
EXPERIMENTAL TARGET: hCCR2b (Homo sapiens, UniProt P41597)
Sequence (P41597 1-360 isoform P41597-2): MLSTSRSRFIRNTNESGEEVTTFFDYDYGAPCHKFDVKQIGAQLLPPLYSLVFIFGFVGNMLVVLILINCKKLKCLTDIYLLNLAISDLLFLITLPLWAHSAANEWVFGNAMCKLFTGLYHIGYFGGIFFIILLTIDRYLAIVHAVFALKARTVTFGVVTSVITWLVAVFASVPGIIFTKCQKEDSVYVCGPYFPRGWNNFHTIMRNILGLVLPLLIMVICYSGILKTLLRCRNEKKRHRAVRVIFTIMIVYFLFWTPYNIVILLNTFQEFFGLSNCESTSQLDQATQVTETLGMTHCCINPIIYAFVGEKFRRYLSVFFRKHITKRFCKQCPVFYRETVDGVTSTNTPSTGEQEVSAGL
EXPERIMENTAL DETAILS: CCR2 binding assay ([125I]MCP-1, SPA, CHO cell membranes)
Set-up: expressed in transfected cells; host or cells: CHO cells (membrane preparation)
MEASUREMENT PARAMETERS: membranes from CHO cells expressing hCCR2b, 50 pM [125I]MCP-1; read-out: Binding hCCR2 (Ki)
Entries annotated with measured Ki

CCN1CCC2(CC1)OC(=O)C(C)=C2C(=O)N1CCc2ccc(F)cc2C1
100 to 500 nM

*Q* Entry CCN1CCC2(CC1)OC(=O)C(C)=C2C(=O)N1CCC(Nc2cccc(C(F)(F)F)c2)CC1 has what Ki?
*A* 500 to 2000 nM

*Q* Param item: CC1=C(C(=O)N2CCN(c3cccc(C(F)(F)F)c3)CC2)C2(CCN(CCCC(=O)O)CC2)OC1=O
*A* 100 to 500 nM

*Q* Param item: COc1ccccc1CCN1CCC2(CC1)OC(=O)C(C)=C2C(=O)N1CCc2ccc(C(F)(F)F)cc2C1
*A* < 50 nM

----------
EXPERIMENTAL TARGET: UniProt:P41597
EXPERIMENTAL DETAILS: CCR2 binding assay ([125I]MCP-1, SPA, CHO cell membranes)
Design: expressed in transfected cells; host or cells: CHO cells (membrane preparation)
MEASUREMENT PARAMETERS: membranes from CHO cells expressing hCCR2b, 50 pM [125I]MCP-1; read-out: Binding hCCR2 (Ki)
REPORTED ENDPOINT: Ki

CC1=C(C(=O)NCC(=O)Nc2cccc(C(F)(F)F)c2)C2(CCN(C3CCOCC3)CC2)OC1=O
< 50 nM
CC1=C(C(=O)N2CCN(c3cccc(C(F)(F)F)c3)CC2)C2(CCN(CC(=O)c3ccccc3)CC2)OC1=O
100 to 500 nM
CCN1CCC2(CC1)OC(=O)C(C)=C2C(=O)N1CCC(c2cccc(C(F)(F)F)c2)CC1
100 to 500 nM
CC1=C(C(=O)N2CCN(c3cccc(C(F)(F)F)c3)CC2)C2(CCN(CCc3cccc(Cl)c3)CC2)OC1=O
< 50 nM
CC1=C(C(=O)N2CCc3ccc(C(F)(F)F)cc3C2)C2(CCNCC2)OC1=O
< 50 nM
COC1COCCC1N1CCC2(CC1)OC(=O)C(C)=C2C(=O)N1CCc2ccc(C(F)(F)F)cc2C1 (single isomer, unassigned; (-)) [Compound 40]
< 50 nM
CCN1CCC2(CC1)OC(=O)C(C)=C2C(=O)N1CCN(CCc2ccc(F)cc2)CC1
100 to 500 nM
CCN1CCCC2(CC1)OC(=O)C(C)=C2C(=O)N1CCc2ccc(C(F)(F)F)cc2C1 (centres unmarked)
< 50 nM

*Q* Entry COCCCN1CCC2(CC1)OC(=O)C(C)=C2C(=O)N1CCc2ccc(C(F)(F)F)cc2C1 has what Ki?
*A* < 50 nM

*Q* Param item: CCN1CCC2(CC1)OC(=O)C(C)=C2C(=O)N1CCN(c2ccc(C(F)(F)F)cc2)CC1
*A* 500 to 2000 nM

*Q* Param item: CC1=C(C(=O)N2CCN(c3cccc(C(F)(F)F)c3)CC2)C2(CCN(CCc3ccccc3)CC2)OC1=O
*A* < 50 nM

*Q* Param item: CCN1CCC2(CC1)OC(=O)C(C)=C2C(=O)N1CCN(c2cc(C(F)(F)F)ccc2C)CC1
*A* 500 to 2000 nM

*Q* Param item: CC1=C(C(=O)NCc2ccc(C(F)(F)F)cc2)C2(CCN(C(C)C)CC2)OC1=O
*A* 500 to 2000 nM
